# target system: human GLP-1 receptor (human, UniProt P43220 24-463)
# assay details: cell-based or functional assay
Starred links: 1 amine or outer side, 2 acyl side, 3 side chain; linkers in the order of their positions; H or OH if unused. Non-standard residues stand in square brackets, D forms with d. Groups on a side chain read outwards from the residue. *: point of attachment. C20 diacid = O=C(O)CCCCCCCCCCCCCCCCCCC(=O)*; C18 diacid = O=C(O)CCCCCCCCCCCCCCCCC(=O)*; γGlu = O=C(O)[C@H](CCC(=O)[*:2])N[*:1]; Desaminohistidyl = O=C(CCc1c[nH]cn1)*; AEEA = NCCOCCOCC(=O)O; Aib = CC(C)(N)C(=O)O
Response field label: string, one of Y (Human GLP-1R potency [EC50 (pM)] strictly below 6 pM) or N.

IN: I wonder whether Compound 0040 (peptide) peptide: H[Aib]EGTFTSDVSSYLEGQAAK([AEEA-AEEA-γGlu-C18 diacid])EFIAWLVRGRGGGGEASELSTAALGRLSAELHELATLPRTETGSGSP-NH2 has Human GLP-1R potency [EC50 (pM)] below 6 pM. Can you tell?
OUT: N

Others:
IN: I wonder whether Compound 0142 (peptide) peptide: [Desaminohistidyl][Aib]EGTFTSDVSSYLEEQAAREFIAWLVRGRK([γGlu-C20 diacid])EASELSTAALGRLSAELHELATLPRTETGSGSP-NH2 has Human GLP-1R potency [EC50 (pM)] below 6 pM. Can you tell?
OUT: N

meta.source: patent US20260132182A1
